src = PubChem BioAssay (NCI)

# maps each entry to its TGI
Tested on: K-562 leukemia
procedure_text: NCI tumour cell line growth inhibition, 48 h

Provide only the value of recorded TGI for O=[Se](=O)c1ccccc1.O=[Se](=O)c1ccccc1.[Cu]
47.4 µM

Provide only the value of recorded TGI for CCOC(=O)/C=C(/C(=O)OCC)n1cc(C)c(=O)n(Cc2cn(COCCOC(C)=O)nn2)c1=O
63.2 µM

Provide only the value of recorded TGI for O=c1[nH]cnc2[nH]ncc12
> 5000 µM

* * *

# maps each entry to its GI50
Test system: A549 NSCLC
procedure_text: NCI tumour cell line growth inhibition, 48 h

# item_smiles, assay_system, measure, test_value
measured = [
    ("CC(C)NC(=O)OCc1c(COC(=O)NC(C)C)c(-c2ccc(Cl)cc2)n2c1CCC2", "A549 NSCLC", "GI50", "8.12 µM"),
    ("COc1ccc(C(=O)c2cc3c(OC)c(OC)c(OC)cc3[nH]2)cc1", "A549 NSCLC", "GI50", "5.77 µM"),
]

# next compound below
Provide only the value of recorded GI50 for O=C(Nc1ccc(Cl)cc1)c1cc(-c2ccc(Cl)cc2)c2sc(=O)[nH]c2n1
2.49 µM

* * *

# maps each entry to its TGI
Test system: SF-295 CNS
procedure_text: NCI tumour cell line growth inhibition, 48 h

# molecule, TGI
data = [
    ("O=Nc1ccc2ccccc2c1O", "25.4 µM"),
    ("C=C1C(=O)O[C@H]2[C@H]1CC/C(COC(=O)CSCC(=O)OC/C1=C/CC[C@@]3(C)O[C@H]3[C@H]3OC(=O)C(=C)[C@@H]3CC1)=C\\CC[C@@]1(C)O[C@@H]21", "26.2 µM"),
    ("CN(C)C(=O)c1cc2cnc(Nc3ccc(-c4csc5c(=O)cc(N6CCOCC6)oc45)cc3)nc2n1C1CCCC1", "1.14 µM"),
    ("CCN1c2ccccc2C(Cl)(c2ccc(N(C)C)cc2)c2ccccc21", "73.8 µM"),
    ("COc1ccccc1NC(=O)C1=C(C)NC(C)=C(C(=O)Nc2ccccc2OC)C1c1ccc(C)cc1", "> 100 µM"),
    ("O=c1[nH]cnc2[nH]ncc12", "> 5000 µM"),
]

Provide only the value of recorded TGI for COC(=O)C1(F)C(=O)NC(=O)NC1O (centres undefined)
> 100 µM

Provide only the value of recorded TGI for COc1ccc2c(c1)n([O-])c(C#N)c(N1CCN(c3ccc([N+](=O)[O-])cc3)CC1)[n+]2=O
> 48.1 µM

Provide only the value of recorded TGI for O=C1CN(C(=O)c2ccccc2)Cc2[nH]c3ccccc3c21
> 100 µM

Provide only the value of recorded TGI for S=C1Nc2ccc(Cl)cc2C2(c3ccccc3)N3CCN=C3NN12 (centres undefined)
> 100 µM

Provide only the value of recorded TGI for Cn1cc(-c2cnc3ccc4ccc(CS(=O)(=O)NCc5ccccn5)cc4c(=O)c3c2)cn1
> 100 µM

Provide only the value of recorded TGI for CCOc1nc(-c2ccccc2)cc(-c2ccc(N3CCOCC3)cc2)c1C#N
> 100 µM

Provide only the value of recorded TGI for NC(=O)c1ccc2c(c1)S(=O)(=O)c1ccccc1C2=O
> 100 µM

* * *

# maps each entry to its TGI
Tested on: COLO 205 colon
procedure_text: NCI tumour cell line growth inhibition, 48 h

Worked set:
# item_smiles, measure, test_value
data = [
    ("N#C[S-].[Nd+3].c1ccc(-c2ccccn2)nc1.c1ccc(-c2ccccn2)nc1.c1ccc(-c2ccccn2)nc1", "TGI", "> 100 µM"),
    ("CCOC(=O)/C=C(/C(=O)OCC)n1cc(C)c(=O)n(Cc2cn(COCCOC(C)=O)nn2)c1=O", "TGI", "> 55.2 µM"),
]

# next compound below
Provide only the value of recorded TGI for COC(=O)/C=C(/C(=O)OC)c1c(C)c(C)c2c(C)cc(C)cc(C)c1-2
> 100 µM

* * *

Test system: HT29 colon
procedure_text: NCI tumour cell line growth inhibition, 48 h
measure: TGI (µM)
Unit µM implied. Number only.

Worked set:
# item_smiles, TGI, µM
rows = [
    ("O=C(CCl)N1c2ccccc2Sc2ccc3ccccc3c21", 4.58),
    ("COc1ccc(-n2c3c(c4c(CN5CCOCC5)c(O)ccc42)CCc2ccccc2C3=O)cc1", 0.0934),
]

# next compound below
Provide only the value of recorded TGI for O=Nc1ccc2ccccc2c1O
13.4

* * *

System: CAKI-1 renal
procedure_text: NCI tumour cell line growth inhibition, 48 h
measure: TGI

Worked set:
# molecule, TGI
measured = [
    ("O=c1[nH]c(=O)n(Cc2ccccc2CO)cc1Sc1ccccc1", "27.2 µM"),
    ("CCN1c2ccccc2C(Cl)(c2ccc(N(C)C)cc2)c2ccccc21", "49.4 µM"),
    ("[N-]=[N+]=CC(=O)OCC1SCCCS1", "> 100 µM"),
]

Give CAKI-1 renal TGI for the following molecule: O=C(O)c1ccc(N/C=C2\C(=O)c3ccccc3OC2O)cc1O (stereo not drawn)
32.5 µg/mL

Give CAKI-1 renal TGI for the following molecule: Cc1cc(-c2nc3ccccc3s2)ccc1NC(=O)[C@H](C)N
24 µM

Give CAKI-1 renal TGI for the following molecule: Cc1ccc(-c2cc(C3=CC(=O)C=CC3=O)n(-c3ccc(S(N)(=O)=O)cc3)n2)cc1
> 100 µM

Give CAKI-1 renal TGI for the following molecule: Oc1ccc(SCc2cc(O)c(O)c(O)c2)cc1
> 100 µM

Give CAKI-1 renal TGI for the following molecule: COC(=O)n1c(=O)n(-c2ccccc2)c(=O)n1C(=O)OC
> 100 µM

Give CAKI-1 renal TGI for the following molecule: Cc1cccc(NC(=O)C(=O)C(C(=O)c2ccccc2F)C2OC(=O)c3ccccc32)c1Cl (stereo not drawn)
> 100 µM

Give CAKI-1 renal TGI for the following molecule: COc1ccc2c(c1)C(=O)/C(=C/c1ncc([N+](=O)[O-])n1C)O2
0.617 µM

Give CAKI-1 renal TGI for the following molecule: O=Nc1ccc2ccccc2c1O
19.3 µM

Give CAKI-1 renal TGI for the following molecule: COP(=O)(OC)C(Cc1c[nH]c2ccccc12)NC(=O)OCc1ccccc1 (stereo not drawn)
> 100 µM

Give CAKI-1 renal TGI for the following molecule: COc1ccc(/C(=N/Nc2ccccc2)C(c2ccc(OC)cc2)C2OC(=O)c3ccccc32)cc1 (stereo not drawn)
> 100 µM

* * *

# maps each entry to its TGI
Tested on: CCRF-CEM leukemia
procedure_text: NCI tumour cell line growth inhibition, 48 h
Unit µM implied. Number only.

# molecule, assay_system, TGI / µM
records = [
    ("CN(C)C(=O)c1cc2cnc(Nc3ccc(-c4csc5c(=O)cc(N6CCOCC6)oc45)cc3)nc2n1C1CCCC1", "CCRF-CEM leukemia", 18.3),
]

Give CCRF-CEM leukemia TGI for the following molecule: O=C(N/N=C/c1ccccc1O)C(=O)Nc1ccc(F)cc1
13.4

Give CCRF-CEM leukemia TGI for the following molecule: COc1cc(CC2c3cc(OC)c(OC)cc3CCN2C)c(Oc2cc3c(cc2OC)-c2c(O)c(OC)cc4c2C(C3)N(C)CC4)cc1OC (centres undefined)
42.8

* * *

Test system: NCI-H23 lung
procedure_text: NCI tumour cell line growth inhibition, 48 h
# maps each entry to its TGI

Worked set:
# compound, test_value
data = [
    ("CCOc1nc(-c2ccccc2)cc(-c2ccc(N3CCOCC3)cc2)c1C#N", "> 100 µM"),
    ("O=C1NC2(CCCCC2)C2CCCCCC12 (configuration not stated)", "> 100 µM"),
    ("NC(=O)c1ccc2c(c1)S(=O)(=O)c1ccccc1C2=O", "> 100 µM"),
]

Provide only the value of recorded TGI for Cc1ccc(C(C2C(=O)N(C)C(=O)N(C)C2=O)C(F)(F)C(=O)N(C)C)cc1 (configuration not stated)
> 100 µM

Provide only the value of recorded TGI for C1OC1CO[C@@H]1CO[C@H]2[C@@H]1OC[C@H]2OCC1CO1 (some centres not stated)
> 100 µM

Provide only the value of recorded TGI for COC(=O)/C=C(/C(=O)OC)c1c(C)c(C)c2c(C)cc(C)cc(C)c1-2
> 100 µM

Provide only the value of recorded TGI for CC(CO)C1C[C@H](O)[C@@]2(C)CC(=O)C=C(CO)[C@@H]2C1 (some centres not stated)
> 100 µM

Provide only the value of recorded TGI for O=c1[nH]cnc2[nH]ncc12
> 1870 µM

Provide only the value of recorded TGI for CC(C)c1ccc(/C=C2\CSCC3=C2NC(=S)NC3c2ccc(C(C)C)cc2)cc1 (configuration not stated)
> 100 µM

Provide only the value of recorded TGI for COc1ccc2c(c1)N=C1CSC(c3ccccc3Cl)N1C2 (configuration not stated)
49.9 µM

Provide only the value of recorded TGI for C=CCC1(O)c2cccc(NCCO)c2C(=O)c2c(NCCO)cccc21
> 100 µM

Provide only the value of recorded TGI for Oc1[nH]c2ccccc2c1N=Nc1nc(-c2ccc(Cl)c(Cl)c2)cs1
> 100 µM

Provide only the value of recorded TGI for CCN1c2ccccc2C(Cl)(c2ccc(N(C)C)cc2)c2ccccc21
14.4 µM

Provide only the value of recorded TGI for S=C1Nc2ccc(Cl)cc2C2(c3ccccc3)N3CCN=C3NN12 (configuration not stated)
> 100 µM

Provide only the value of recorded TGI for COc1cccc(/C=N/[N-]C(N)=O)c1[O-].[Ni+2].[OH3+].c1cnc2c(c1)ccc1cccnc12
> 100 µM

Provide only the value of recorded TGI for COc1ccc(-c2c(N)n(-c3cccc(C(=O)O)c3)c(=O)c3cc([N+](=O)[O-])ccc23)cc1
> 100 µM

Provide only the value of recorded TGI for COC(=O)n1c(=O)n(-c2ccccc2)c(=O)n1C(=O)OC
> 100 µM

Provide only the value of recorded TGI for COc1ccc(Cl)cc1NC(=O)C(Br)C(Br)C(=O)O (configuration not stated)
47.8 µM

Provide only the value of recorded TGI for c1ccc2c(c1)[nH]c1cnc3c4cccnc4[nH]c3c12
62.1 µM

Provide only the value of recorded TGI for CN(NC(=O)CCCl)C1=NCCCCN1
> 100 µM

Provide only the value of recorded TGI for COC(=O)C1(F)C(=O)NC(=O)NC1O (configuration not stated)
> 100 µM

Provide only the value of recorded TGI for Cc1cccc(C2=NC(C)(C)C(C)(C)N=C2c2cccc(C)n2)n1
> 100 µM

Provide only the value of recorded TGI for COc1ccc2c(c1)C(=O)/C(=C/c1ncc([N+](=O)[O-])n1C)O2
4.76 µM
